- experimental target: CAMK1G (human)
- method notes: radiometric filter-binding kinase assay, Kinase HotSpot
- experimental context: compound 0.5 µM; ATP 10 µM
measure: residual activity (%)
Numbers only; they are read as %.

Entry `O=C(O)c1ccc2c3c1cccc3c(=O)n1c3ccccc3nc21` has what residual activity?
99

So what's the measured residual activity for this one? `N#Cc1c(NC(=O)c2cccc3ccccc23)sc2c1CCCC2`
97.7

Can you look up the measured residual activity of `CCCCc1c(-c2ccc(O)cc2)[nH]c2nccnc12` for me?
104

Which residual activity is listed for `N/C(=N\N=C/c1ccc(-c2cccc([N+](=O)[O-])c2)o1)N[N+](=O)[O-]` ?
104

I would be grateful if you could share the reported residual activity for `COc1cc2ncnc(Nc3ccc(O)c(Br)c3)c2cc1OC` .
103

Report residual activity for `O=S(=O)(NCCNC/C=C/c1ccc(Br)cc1)c1cccc2cnccc12` please.
99.1

Data request, read-out residual activity, for `CCc1nc(-c2ccc(OC)cc2)[nH]c1-c1ccncc1`
98

Could you tell me which residual activity is on file for `COc1cccc(-c2cc(=O)c3ccccc3o2)c1N` ?
96.5

What measured residual activity goes with `COc1cc2c(cc1OC)-c1[nH]nc(Nc3cccc(F)c3)c1C2` ?
101

Can you share its residual activity? I mean this molecule: `COc1cc2c(Nc3ccc(Br)cc3F)ncnc2cc1OCC1CCN(C)CC1`
101

// residual activity lookup, key: `O=C(c1ccccc1)c1ccc(N2CCOCC2)cc1O`
96.1

Consider the molecule `FC(F)(F)c1ccc(/C=C/c2nc(COc3ccc(CCCCn4ccnn4)cc3)co2)cc1` and give its measured residual activity.
95

Any idea what residual activity was measured for `O=c1[nH]c2ccccc2n1C1CCN(Cc2ccc(-c3nc4cc5[nH]cnc5cc4nc3-c3ccccc3)cc2)CC1` ?
101

Param item = `N#CCCc1ccc2c(c1)-c1[nH]c3ccc([N+](=O)[O-])cc3c1CC(=O)N2` ; retrieve measured residual activity.
103

Tell me the measured residual activity of `Cn1cc(/C=C2\C(=O)Nc3ccc(S(N)(=O)=O)cc32)c2ccccc21` , please.
89.2

Field request: residual activity | item: `CCOc1cc2ncnc(Nc3cccc(Br)c3)c2cc1OCC`
97.2

====

- experimental target: UniProtKB P51957
- Sequence (P51957 whole entry, looked up): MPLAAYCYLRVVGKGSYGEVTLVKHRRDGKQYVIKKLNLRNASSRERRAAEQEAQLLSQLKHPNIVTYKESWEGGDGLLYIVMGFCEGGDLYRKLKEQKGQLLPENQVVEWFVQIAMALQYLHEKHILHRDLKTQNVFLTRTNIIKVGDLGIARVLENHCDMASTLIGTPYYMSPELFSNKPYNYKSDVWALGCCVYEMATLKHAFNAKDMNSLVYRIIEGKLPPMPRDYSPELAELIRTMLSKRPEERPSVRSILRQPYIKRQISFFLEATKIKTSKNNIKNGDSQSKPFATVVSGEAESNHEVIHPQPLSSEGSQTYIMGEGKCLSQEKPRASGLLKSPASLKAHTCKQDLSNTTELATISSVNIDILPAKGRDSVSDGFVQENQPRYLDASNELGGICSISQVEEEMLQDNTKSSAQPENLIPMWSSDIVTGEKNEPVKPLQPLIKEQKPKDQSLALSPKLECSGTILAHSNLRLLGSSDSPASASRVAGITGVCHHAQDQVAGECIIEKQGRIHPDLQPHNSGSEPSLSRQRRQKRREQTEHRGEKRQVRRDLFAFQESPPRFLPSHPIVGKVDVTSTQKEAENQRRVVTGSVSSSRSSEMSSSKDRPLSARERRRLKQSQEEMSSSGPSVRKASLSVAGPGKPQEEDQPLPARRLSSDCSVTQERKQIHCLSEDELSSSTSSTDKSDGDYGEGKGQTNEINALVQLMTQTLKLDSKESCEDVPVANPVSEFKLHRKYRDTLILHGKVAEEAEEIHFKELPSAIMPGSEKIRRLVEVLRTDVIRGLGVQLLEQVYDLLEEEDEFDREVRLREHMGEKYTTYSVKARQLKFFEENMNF
- method notes: radiometric filter-binding kinase assay, Kinase HotSpot
- experimental context: compound 0.5 µM; ATP 10 µM
measure: residual activity (%)
Record the value in %, omitting the unit from your answer.

Bench note: what residual activity did `Cn1cc(/C=C2\C(=O)Nc3ccc(S(N)(=O)=O)cc32)c2ccccc21` show?
81

Requested read-out: residual activity. Entry: `O=C1NC(=O)c2cc(Nc3ccc(F)cc3)c(Nc3ccc(F)cc3)cc21`
107

Any idea what residual activity was measured for `CCc1nc(-c2ccc(OC)cc2)[nH]c1-c1ccncc1` ?
95.2

Find the recorded residual activity belonging to `N#Cc1c(NC(=O)c2cccc3ccccc23)sc2c1CCCC2` and report it.
94.6

Would you mind telling me what residual activity value was observed for `O=c1c2ccccc2[nH]c(=S)n1CCN1CCC(=C(c2ccc(F)cc2)c2ccc(F)cc2)CC1` ?
99.1

Give its residual activity value. Item: `O=C(O)c1ccc2c3c1cccc3c(=O)n1c3ccccc3nc21`
60.4

Which value of residual activity has been reported for `COc1cc2ncnc(Nc3ccc(O)c(Br)c3)c2cc1OC` in the records?
93.1

For `CCCCc1c(-c2ccc(O)cc2)[nH]c2nccnc12` , what is its reported residual activity?
82.2

Query (compound): `c1ccc(-c2cnc(Nc3ccc(OCCN4CCCC4)cc3)s2)cc1` ; field requested: residual activity
96.1

Consider the compound `O=C(c1ccccc1)c1ccc(N2CCOCC2)cc1O` and give its measured residual activity.
97.7

Record request: residual activity value, item `CCOc1cc2ncnc(Nc3cccc(Br)c3)c2cc1OCC`
84.8

Which residual activity reading was recorded for the compound `N/C(=N\N=C/c1ccc(-c2cccc([N+](=O)[O-])c2)o1)N[N+](=O)[O-]` ?
103

What value of residual activity has been reported for the following compound? `COc1cccc(-c2cc(=O)c3ccccc3o2)c1N`
93.4

Reported residual activity, compound `O=C1NC(=O)c2c1c1c3ccccc3[nH]c1c1[nH]c3cc(Br)ccc3c21` : ____
89

What measured residual activity goes with `O=c1[nH]c2ccccc2n1C1CCN(Cc2ccc(-c3nc4cc5[nH]cnc5cc4nc3-c3ccccc3)cc2)CC1` ?
106

May I ask what residual activity has been recorded for `O=c1cc(N2CCOCC2)oc2c(-c3ccccc3)cccc12` ?
95.1

# get_value(readout='residual activity', item= `O=c1c(-c2ccc(F)cc2)c(-c2ccncc2)[nH]n1-c1ccc(Cl)cc1` )
93.9

====

- experimental target: UniProt:Q8NE63
- Sequence (Q8NE63 whole entry, looked up): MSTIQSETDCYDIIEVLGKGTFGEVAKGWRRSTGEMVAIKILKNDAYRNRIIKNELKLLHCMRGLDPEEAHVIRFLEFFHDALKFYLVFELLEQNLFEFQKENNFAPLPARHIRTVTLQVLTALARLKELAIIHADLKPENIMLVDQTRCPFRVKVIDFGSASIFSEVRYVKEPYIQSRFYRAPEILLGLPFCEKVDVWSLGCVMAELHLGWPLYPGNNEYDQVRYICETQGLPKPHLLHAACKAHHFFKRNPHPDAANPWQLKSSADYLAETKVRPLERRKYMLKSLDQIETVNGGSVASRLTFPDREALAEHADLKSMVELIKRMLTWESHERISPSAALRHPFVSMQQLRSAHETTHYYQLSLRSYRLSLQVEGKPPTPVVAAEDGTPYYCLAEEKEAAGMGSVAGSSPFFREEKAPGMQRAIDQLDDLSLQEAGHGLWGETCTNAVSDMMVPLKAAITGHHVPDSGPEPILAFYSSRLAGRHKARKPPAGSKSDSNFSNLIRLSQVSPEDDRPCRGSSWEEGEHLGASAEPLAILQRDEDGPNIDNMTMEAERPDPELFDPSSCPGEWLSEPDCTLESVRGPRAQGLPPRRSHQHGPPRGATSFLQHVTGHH
- method notes: radiometric filter-binding kinase assay, Kinase HotSpot
- experimental context: compound 0.5 µM; ATP 10 µM
Would you kindly list residual activity for each of these molecules?
Respond with the bare value in %.

What value of residual activity has been recorded for this entry: `O=C(O)c1ccc2c3c1cccc3c(=O)n1c3ccccc3nc21`
86.9

Reported residual activity, molecule `c1ccc(-c2cnc(Nc3ccc(OCCN4CCCC4)cc3)s2)cc1` : ____
98.5

Dear colleague, I am looking for the recorded residual activity of the following molecule: `Cc1cc(Nc2nc(-c3ccccc3)nc3ccccc23)n[nH]1`
102

I'd like to know its residual activity. The molecule in question is `COc1cccc(-c2cc(=O)c3ccccc3o2)c1N`
98.6

Entry `O=c1c(-c2ccc(F)cc2)c(-c2ccncc2)[nH]n1-c1ccc(Cl)cc1` has what residual activity?
94.6

Query: residual activity; subject: `O=S(=O)(NCCNC/C=C/c1ccc(Br)cc1)c1cccc2cnccc12`
97.7

Which measured residual activity value corresponds to `N#Cc1c(NC(=O)c2cccc3ccccc23)sc2c1CCCC2` ?
110

I have this molecule here, `CCc1nc(-c2ccc(OC)cc2)[nH]c1-c1ccncc1` , and I need its recorded residual activity.
90

Form field: reported residual activity of `O=C(c1ccccc1)c1ccc(N2CCOCC2)cc1O`
99.5

Looking for the measured residual activity of `COc1cc2c(Nc3ccc(Br)cc3F)ncnc2cc1OCC1CCN(C)CC1` , can you help?
100

Reported residual activity for `FC(F)(F)c1ccc(/C=C/c2nc(COc3ccc(CCCCn4ccnn4)cc3)co2)cc1` : what is it?
105

====

- experimental target: BRSK1 (human)
- method notes: radiometric filter-binding kinase assay, Kinase HotSpot
- experimental context: compound 0.5 µM; ATP 10 µM
measure: residual activity (%)
Numeric answer only, unit % assumed.

Please give the measured residual activity for this compound: `O=c1cc(N2CCOCC2)oc2c(-c3ccccc3)cccc12`
103

I would be grateful if you could share the reported residual activity for `COc1cc2c(Nc3ccc(Br)cc3F)ncnc2cc1OCC1CCN(C)CC1` .
97.1

Given `COc1cc2c(N3CCN(C(=O)Nc4ccc(OC(C)C)cc4)CC3)ncnc2cc1OCCCN1CCCCC1` , state its recorded residual activity.
103

Please report the recorded residual activity for `FC(F)(F)c1ccc(/C=C/c2nc(COc3ccc(CCCCn4ccnn4)cc3)co2)cc1` .
103

Which residual activity value belongs to `CCCCc1c(-c2ccc(O)cc2)[nH]c2nccnc12` ?
89.1

Consider the compound `N#Cc1c(NC(=O)c2cccc3ccccc23)sc2c1CCCC2` and give its measured residual activity.
97

So what's the measured residual activity for this one? `O=c1[nH]c2ccccc2n1C1CCN(Cc2ccc(-c3nc4cc5[nH]cnc5cc4nc3-c3ccccc3)cc2)CC1`
98.3

So what's the measured residual activity for this one? `N/C(=N\N=C/c1ccc(-c2cccc([N+](=O)[O-])c2)o1)N[N+](=O)[O-]`
97.2

# lookup: residual activity of `c1ccc(-c2cnc(Nc3ccc(OCCN4CCCC4)cc3)s2)cc1`
97.6

I'd like to know its residual activity. The compound in question is `CCc1nc(-c2ccc(OC)cc2)[nH]c1-c1ccncc1`
101

====

Assign residual activity to each entry below.
- experimental target: MELK (human) (UniProt Q14680)
- Sequence (Q14680 whole entry, looked up): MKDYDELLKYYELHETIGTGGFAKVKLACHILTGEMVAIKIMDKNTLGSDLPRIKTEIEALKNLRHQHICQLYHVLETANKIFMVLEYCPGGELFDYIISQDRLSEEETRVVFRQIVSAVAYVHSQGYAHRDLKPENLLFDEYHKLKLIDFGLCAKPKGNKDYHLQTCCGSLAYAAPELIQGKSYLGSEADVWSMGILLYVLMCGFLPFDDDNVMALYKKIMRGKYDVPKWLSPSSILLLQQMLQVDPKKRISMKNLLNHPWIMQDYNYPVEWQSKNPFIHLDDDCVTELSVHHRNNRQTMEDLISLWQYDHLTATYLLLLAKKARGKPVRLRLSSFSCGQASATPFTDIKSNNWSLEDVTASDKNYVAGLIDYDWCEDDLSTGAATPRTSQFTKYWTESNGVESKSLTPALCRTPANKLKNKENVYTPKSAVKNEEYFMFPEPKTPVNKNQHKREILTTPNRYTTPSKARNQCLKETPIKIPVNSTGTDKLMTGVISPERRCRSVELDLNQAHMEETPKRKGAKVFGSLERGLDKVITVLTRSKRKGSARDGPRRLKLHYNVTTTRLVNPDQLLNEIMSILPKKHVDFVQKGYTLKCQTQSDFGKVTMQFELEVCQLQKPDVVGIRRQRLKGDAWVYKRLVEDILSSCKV
- method notes: radiometric filter-binding kinase assay, Kinase HotSpot
- experimental context: compound 0.5 µM; ATP 10 µM
The reply should read as a number followed by its unit.

Hello, I am looking for reported residual activity with MELK (human) (UniProt Q14680) for `N/C(=N\N=C/c1ccc(-c2cccc([N+](=O)[O-])c2)o1)N[N+](=O)[O-]` . Could you help?
102%

Provide the documented residual activity with MELK (human) (UniProt Q14680) as the system for `O=C1NC(=O)c2cc(Nc3ccc(F)cc3)c(Nc3ccc(F)cc3)cc21`
92%

Tell me reported residual activity for `CCCCc1c(-c2ccc(O)cc2)[nH]c2nccnc12` , tested with MELK (human) (UniProt Q14680).
82.5%

Param readout = residual activity; param system = MELK (human) (UniProt Q14680); param query = `FC(F)(F)c1ccc(/C=C/c2nc(COc3ccc(CCCCn4ccnn4)cc3)co2)cc1` ; response: value
85.4%

For the record `O=C(c1ccccc1)c1ccc(N2CCOCC2)cc1O` , what value of residual activity is listed for MELK (human) (UniProt Q14680)?
103%

// lookup residual activity | system=MELK (human) (UniProt Q14680) | key= `Cc1cc(Nc2nc(-c3ccccc3)nc3ccccc23)n[nH]1`
69.1%

Give MELK (human) (UniProt Q14680) residual activity for `COc1cccc(-c2cc(=O)c3ccccc3o2)c1N`
94%

Recorded residual activity for `O=S(=O)(NCCNC/C=C/c1ccc(Br)cc1)c1cccc2cnccc12` with MELK (human) (UniProt Q14680), please?
75.1%

MELK (human) (UniProt Q14680) / residual activity / `COc1cc2c(N3CCN(C(=O)Nc4ccc(OC(C)C)cc4)CC3)ncnc2cc1OCCCN1CCCCC1` : value?
87.9%

Hello, I am looking for reported residual activity with MELK (human) (UniProt Q14680) for `O=c1c(-c2ccc(F)cc2)c(-c2ccncc2)[nH]n1-c1ccc(Cl)cc1` . Could you help?
86.5%
